System: U2OS
Experiment: Multiplex assay against U2OS
Type: toxicity, cell-based
Details: human, 24 h, 1 µM, compound concentration 1 uM, replicate 2
# Lookup of reported Population Fragmented Nuclei (%) keyed by entry
readoutLabel: Population Fragmented Nuclei (%)

>>> val("CN1C(=O)[C@@H](NC(=O)c2cc3ccccc3[nH]2)N=C(c2ccccc2)c2ccccc21 [DEVAZEPIDE]")
7
>>> val("Cc1ccc(NC(=O)Nc2cc(C(F)(F)F)ccc2F)cc1Nc1ccc2c(c1)NC(=O)/C2=C\\c1ccc[nH]1")
31
>>> val("Cl.Cn1c2c(c3ccc(Cl)c(Cl)c31)C(C#N)C1(CCNCC1)NC2=O (stereo not drawn)")
3
>>> val("CCCc1cc(C)[nH]c(=O)c1CNC(=O)c1cc(-c2ccc(N3CCN(C(C)C)CC3)nc2)cc2c1cnn2C(C)C")
20
>>> val("N#Cc1cccc(C(=O)Nc2cc(-c3ccccc3)nn2-c2ccccc2)c1")
3
>>> val("CN(c1cc(C(F)(F)F)nc(OCCC(=O)O)n1)c1cccc2c1CCC2")
4
>>> val("CC(/C=C1\\SC(=S)N(CCCC(=O)Nc2ccc(C(=O)O)c(O)c2)C1=O)=C\\c1ccccc1")
12
>>> val("CCCCN(CC)c1nc(C)nc2c1c(C)cn2-c1c(C)cc(C)cc1C.Cl")
13
>>> val("Cc1c(P(=S)(c2ccccc2)c2ccccc2)n2ccccc2[n+]1C/C=C/c1ccccc1.[Br-]")
55
>>> val("CC[C@H](Nc1ncnc2[nH]cnc12)c1nc2cccc(F)c2c(=O)n1-c1ccccc1 [IDELALISIB]")
9
>>> val("Cc1c(Nc2ccc(S(=O)(=O)N3CCN(C)CC3)cc2F)nc2ccc(Nc3cnn(C4CC4)c3)cn2c1=O")
6
>>> val("CC(Cc1ccc(O)c(O)c1)C(C)Cc1ccc(O)c(O)c1 (stereo not drawn) [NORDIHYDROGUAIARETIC ACID]")
2
>>> val("C=CC(=O)Nc1cc(-n2c(=O)ccc3cnc4ccc(-c5ccc(NS(C)(=O)=O)cc5)cc4c32)ccc1C")
11
>>> val("Cc1ccc(S(=O)(=O)NC2c3ccccc3Oc3ccccc32)cc1")
5
>>> val("CCCCCNC(=N)N/N=C/c1c[nH]c2ccc(OC)cc12.O=C(O)/C=C\\C(=O)O [TEGASEROD MALEATE]")
10
>>> val("Cl.NC[C@@H]1O[C@H](C23CC4CC(CC(C4)C2)C3)Cc2c1ccc(O)c2O")
8
>>> val("CC(C)c1cc(Nc2nc(N3CCC[C@H](N)C3)ncc2C(N)=O)cc(C(C)C)n1")
10
>>> val("N#CCNC(=O)c1ccc(-c2ccnc(Nc3ccc(N4CCOCC4)cc3)n2)cc1 [MOMELOTINIB]")
7

###

Entries annotated with measured Population Tubulin-Different-Phenotype (%)
Test system: U2OS
Assay: Multiplex assay against U2OS
Assay type: toxicity, cell-based
Conditions: human, 24 h, 1 µM, compound concentration 1 uM, replicate 1
readoutLabel: Population Tubulin-Different-Phenotype (%)

>>> val("N#CCNC(=O)c1ccc(-c2ccnc(Nc3ccc(N4CCOCC4)cc3)n2)cc1 [MOMELOTINIB]")
17
>>> val("CC[C@@H]1C(=O)N(C)c2cnc(Nc3ccc(C(=O)N[C@H]4CC[C@H](N5CCN(CC6CC6)CC5)CC4)cc3OC)nc2N1C(C)C [VOLASERTIB]")
78
>>> val("CCCCN(CC)c1nc(C)nc2c1c(C)cn2-c1c(C)cc(C)cc1C.Cl")
9
>>> val("C[C@@H](Oc1cc(-n2cnc3ccc(CN4CCN(C)CC4)cc32)sc1C(N)=O)c1ccccc1C(F)(F)F [GSK-461364]")
91
